- assay_overview: Toxicity in male Sprague-Dawley rat assessed as no observed adverse effect level at iv administration and observed on day 14
- Format: organism-based
- conditions_used: in vivo, time 14 day
Residues, ends and D or L forms follow the SMILES beside them.
recorded_endpoint: NOAEL at 336 h (mg/kg)
# output: bare number, implied unit mg/kg

Please report the recorded NOAEL at 336 h for CCCCCCCC(=O)N[C@@H](CCCCN)C(=O)N[C@@H](CCCCN)C(=O)N[C@@H](C)C(=O)N[C@@H](CC(C)C)C(=O)N[C@@H](CCCCN)C(=O)N[C@@H](CC(C)C)C(=O)N[C@@H](C)C(=O)N[C@@H](CCCCN)C(=O)N[C@@H](CCCCN)C(=O)N1CCC[C@H]1C(=O)N[C@@H](CC(C)C)C(=O)N[C@@H](CCCCN)C(=O)N[C@@H](CC(C)C)C(=O)N[C@@H](CC(C)C)C(=O)N[C@@H](CCCCN)C(N)=O (HELM PEPTIDE1{[CCCCCCCC(=O)[*:2]].K.K.A.L.K.L.A.K.K.P.L.K.L.L.K.[am]}$$$$V2.0) .
20

----------
- Tested on: Acinetobacter baumannii
- assay_overview: Antibacterial activity against Acinetobacter baumannii ATCC 17978 assessed as inhibition of bacterial growth incubated for 18 hrs by two fold serial dilution assay
- Type: functional
Residues, ends and D or L forms follow the SMILES beside them.
recorded_endpoint: MIC (µM)
Field format: number, assumed µM, no unit text.

[
  {
    "molecule": "CCCCCCCCCC(=O)N[C@@H](CCCCN)C(=O)N[C@@H](CCCCN)C(=O)N[C@@H](C)C(=O)N[C@@H](CC(C)C)C(=O)N[C@@H](CCCCN)C(=O)N[C@@H](CC(C)C)C(=O)N[C@@H](C)C(=O)N[C@@H](CCCCN)C(=O)N[C@@H](CCCCN)C(=O)N1CCC[C@H]1C(=O)N[C@@H](CC(C)C)C(=O)N[C@@H](CCCCN)C(=O)N[C@@H](CC(C)C)C(=O)N[C@@H](CC(C)C)C(=O)N[C@@H](CCCCN)C(N)=O (HELM PEPTIDE1{[CCCCCCCCCC(=O)[*:2]].K.K.A.L.K.L.A.K.K.P.L.K.L.L.K.[am]}$$$$V2.0)",
    "target_desc": "Acinetobacter baumannii",
    "recorded_endpoint": "MIC",
    "endpoint_result": 5
  },
  {
    "molecule": "CCCCCC(=O)N[C@@H](CCCCN)C(=O)N[C@@H](CCCCN)C(=O)N[C@@H](C)C(=O)N[C@@H](CC(C)C)C(=O)N[C@@H](CCCCN)C(=O)N[C@@H](CC(C)C)C(=O)N[C@@H](C)C(=O)N[C@@H](CCCCN)C(=O)N[C@@H](CCCCN)C(=O)N1CCC[C@H]1C(=O)N[C@@H](CC(C)C)C(=O)N[C@@H](CCCCN)C(=O)N[C@@H](CC(C)C)C(=O)N[C@@H](CC(C)C)C(=O)N[C@@H](CCCCN)C(N)=O (HELM PEPTIDE1{[CCCCCC(=O)[*:2]].K.K.A.L.K.L.A.K.K.P.L.K.L.L.K.[am]}$$$$V2.0)",
    "target_desc": "Acinetobacter baumannii",
    "recorded_endpoint": "MIC",
    "endpoint_result": 80
  },
  {
    "molecule": "CCCCCCCCCCCCCCCC(=O)N[C@@H](CCCCN)C(=O)N[C@@H](CCCCN)C(=O)N[C@@H](C)C(=O)N[C@@H](CC(C)C)C(=O)N[C@@H](CCCCN)C(=O)N[C@@H](CC(C)C)C(=O)N[C@@H](C)C(=O)N[C@@H](CCCCN)C(=O)N[C@@H](CCCCN)C(=O)N1CCC[C@H]1C(=O)N[C@@H](CC(C)C)C(=O)N[C@@H](CCCCN)C(=O)N[C@@H](CC(C)C)C(=O)N[C@@H](CC(C)C)C(=O)N[C@@H](CCCCN)C(N)=O (HELM PEPTIDE1{[CCCCCCCCCCCCCCCC(=O)[*:2]].K.K.A.L.K.L.A.K.K.P.L.K.L.L.K.[am]}$$$$V2.0)",
    "target_desc": "Acinetobacter baumannii",
    "recorded_endpoint": "MIC",
    "endpoint_result": 1.3
  }
]

Field: next molecule
Query MIC on Acinetobacter baumannii for CCCCCCCC(=O)N[C@@H](CCCCN)C(=O)N[C@@H](CCCCN)C(=O)N[C@@H](C)C(=O)N[C@@H](CC(C)C)C(=O)N[C@@H](CCCCN)C(=O)N[C@@H](CC(C)C)C(=O)N[C@@H](C)C(=O)N[C@@H](CCCCN)C(=O)N[C@@H](CCCCN)C(=O)N1CCC[C@H]1C(=O)N[C@@H](CC(C)C)C(=O)N[C@@H](CCCCN)C(=O)N[C@@H](CC(C)C)C(=O)N[C@@H](CC(C)C)C(=O)N[C@@H](CCCCN)C(N)=O (HELM PEPTIDE1{[CCCCCCCC(=O)[*:2]].K.K.A.L.K.L.A.K.K.P.L.K.L.L.K.[am]}$$$$V2.0)
20

----------
- assay_overview: AUClast in CD1 mouse at 1 mg/kg,iv administration measured upto 1 hr by LC-MS/MS analysis
- Assay type: ADME, organism-based
- Parameters: time < 1 hrs, dose 1 mg/kg, route iv
- conditions_used: in vivo
Residues, ends and D or L forms follow the SMILES beside them.
recorded_endpoint: AUClast (ng·h/mL)
// return numeric value only (unit: ng·h/mL, not printed)

Item under review: CCCCCCCC(=O)N[C@@H](CCCCN)C(=O)N[C@@H](CCCCN)C(=O)N[C@@H](C)C(=O)N[C@@H](CC(C)C)C(=O)N[C@@H](CCCCN)C(=O)N[C@@H](CC(C)C)C(=O)N[C@@H](C)C(=O)N[C@@H](CCCCN)C(=O)N[C@@H](CCCCN)C(=O)N1CCC[C@H]1C(=O)N[C@@H](CC(C)C)C(=O)N[C@@H](CCCCN)C(=O)N[C@@H](CC(C)C)C(=O)N[C@@H](CC(C)C)C(=O)N[C@@H](CCCCN)C(N)=O (HELM PEPTIDE1{[CCCCCCCC(=O)[*:2]].K.K.A.L.K.L.A.K.K.P.L.K.L.L.K.[am]}$$$$V2.0) . Reported AUClast?
88.9

----------
- Test system: Klebsiella pneumoniae
- assay_overview: Antibacterial activity against Klebsiella pneumoniae ATCC 700603 assessed as inhibition of bacterial growth incubated for 18 hrs by two fold serial dilution assay
- Format: functional
Residues, ends and D or L forms follow the SMILES beside them.
Recorded measurements of MIC, one per entry

Worked cases, answers included:
[
  {
    "compound": "CCCCCCCCCCCC(=O)N[C@@H](CCCCN)C(=O)N[C@@H](CCCCN)C(=O)N[C@@H](C)C(=O)N[C@@H](CC(C)C)C(=O)N[C@@H](CCCCN)C(=O)N[C@@H](CC(C)C)C(=O)N[C@@H](C)C(=O)N[C@@H](CCCCN)C(=O)N[C@@H](CCCCN)C(=O)N1CCC[C@H]1C(=O)N[C@@H](CC(C)C)C(=O)N[C@@H](CCCCN)C(=O)N[C@@H](CC(C)C)C(=O)N[C@@H](CC(C)C)C(=O)N[C@@H](CCCCN)C(N)=O (HELM PEPTIDE1{[CCCCCCCCCCCC(=O)[*:2]].K.K.A.L.K.L.A.K.K.P.L.K.L.L.K.[am]}$$$$V2.0)",
    "recorded_endpoint": "MIC",
    "endpoint_result": "80 µM"
  },
  {
    "compound": "CCCCCCCCCC(=O)N[C@@H](CCCCN)C(=O)N[C@@H](CCCCN)C(=O)N[C@@H](C)C(=O)N[C@@H](CC(C)C)C(=O)N[C@@H](CCCCN)C(=O)N[C@@H](CC(C)C)C(=O)N[C@@H](C)C(=O)N[C@@H](CCCCN)C(=O)N[C@@H](CCCCN)C(=O)N1CCC[C@H]1C(=O)N[C@@H](CC(C)C)C(=O)N[C@@H](CCCCN)C(=O)N[C@@H](CC(C)C)C(=O)N[C@@H](CC(C)C)C(=O)N[C@@H](CCCCN)C(N)=O (HELM PEPTIDE1{[CCCCCCCCCC(=O)[*:2]].K.K.A.L.K.L.A.K.K.P.L.K.L.L.K.[am]}$$$$V2.0)",
    "recorded_endpoint": "MIC",
    "endpoint_result": "> 80 µM"
  },
  {
    "compound": "NCC[C@H](O)C(=O)N[C@@H]1C[C@H](N)[C@@H](O[C@H]2O[C@H](CN)[C@@H](O)[C@H](O)[C@H]2O)[C@H](O)[C@H]1O[C@H]1O[C@H](CO)[C@@H](O)[C@H](N)[C@H]1O",
    "recorded_endpoint": "MIC",
    "endpoint_result": "2.5 µM"
  },
  {
    "compound": "CCCCCCCC(=O)N[C@@H](CCCCN)C(=O)N[C@@H](CCCCN)C(=O)N[C@@H](C)C(=O)N[C@@H](CC(C)C)C(=O)N[C@@H](CCCCN)C(=O)N[C@@H](CC(C)C)C(=O)N[C@@H](C)C(=O)N[C@@H](CCCCN)C(=O)N[C@@H](CCCCN)C(=O)N1CCC[C@H]1C(=O)N[C@@H](CC(C)C)C(=O)N[C@@H](CCCCN)C(=O)N[C@@H](CC(C)C)C(=O)N[C@@H](CC(C)C)C(=O)N[C@@H](CCCCN)C(N)=O (HELM PEPTIDE1{[CCCCCCCC(=O)[*:2]].K.K.A.L.K.L.A.K.K.P.L.K.L.L.K.[am]}$$$$V2.0)",
    "recorded_endpoint": "MIC",
    "endpoint_result": "> 80 µM"
  },
  {
    "compound": "CC(=O)N[C@@H](CCCCN)C(=O)N[C@@H](CCCCN)C(=O)N[C@@H](CC(C)C)C(=O)N[C@@H](CC(C)C)C(=O)N[C@@H](CCCCN)C(=O)N[C@@H](CC(C)C)C(=O)N[C@@H](CC(C)C)C(=O)N[C@@H](CCCCN)C(=O)N[C@@H](CCCCN)C(=O)N1CCC[C@H]1C(=O)N[C@@H](CC(C)C)C(=O)N[C@@H](CCCCN)C(=O)N[C@@H](CC(C)C)C(=O)N[C@@H](CC(C)C)C(=O)N[C@@H](CCCCN)C(N)=O",
    "recorded_endpoint": "MIC",
    "endpoint_result": "> 80 µM"
  }
]

Now consider a different compound.
MIC of CCCCCC(=O)N[C@@H](CCCCN)C(=O)N[C@@H](CCCCN)C(=O)N[C@@H](C)C(=O)N[C@@H](CC(C)C)C(=O)N[C@@H](CCCCN)C(=O)N[C@@H](CC(C)C)C(=O)N[C@@H](C)C(=O)N[C@@H](CCCCN)C(=O)N[C@@H](CCCCN)C(=O)N1CCC[C@H]1C(=O)N[C@@H](CC(C)C)C(=O)N[C@@H](CCCCN)C(=O)N[C@@H](CC(C)C)C(=O)N[C@@H](CC(C)C)C(=O)N[C@@H](CCCCN)C(N)=O (HELM PEPTIDE1{[CCCCCC(=O)[*:2]].K.K.A.L.K.L.A.K.K.P.L.K.L.L.K.[am]}$$$$V2.0) on Klebsiella pneumoniae?
> 80 µM
